// Beta-secretase 1 (Homo sapiens, UniProt P56817) Ki records
Give bare numbers, in nM.

Example entries begin here.
CC(C)C[C@H](NC(=O)[C@H](CC(N)=O)NC(=O)OC(C)(C)C)[C@@H](O)C[C@@H](C)C(=O)N[C@@H](C)C(=O)NCc1ccccc1 :: 22400
CSCC[C@H](NC(=O)[C@@H](NC(=O)OC(C)(C)C)C(C)C)C(=O)N[C@@H](CC(C)C)[C@@H](O)C[C@@H](C)C(=O)N[C@H](C(=O)NCc1ccccc1)C(C)C :: 2.5
CSCC[C@H](NC(=O)OC(C)(C)C)C(=O)N[C@@H](CC(C)C)[C@@H](O)C[C@@H](C)C(=O)N[C@H](C(=O)NCc1ccccc1)C(C)C :: 5810

Field: next compound
The compound identified as CC(C)C[C@H](NC(=O)[C@H](CC(N)=O)NC(=O)[C@@H](NC(=O)OC(C)(C)C)C(C)C)[C@@H](O)C[C@@H](C)C(=O)N[C@@H](C)C(=O)NCc1ccccc1 registered its Ki at 61.4
